- Tested on: PC-3 prostate
- test_method_notes: NCI tumour cell line growth inhibition, 48 h
Let's look at some compounds and their measured TGI.

Request: For PC-3 prostate, provide TGI of `Oc1ccc2ccccc2c1C=NCCCN=Cc1c(O)ccc2ccccc12` please.
Response: > 100 µM

* * *

- System: A549 NSCLC
- test_method_notes: NCI tumour cell line growth inhibition, 48 h
value_type: TGI

Here are 5 molecules together with their reported answers.
>>> observed("COc1cc(Nc2cnc3cc(C(F)(F)F)ccc3n2)cc(OC)c1OC")
"> 100 µM"
>>> observed("O=C1c2ccccc2-c2c1c1ccccc1c(=O)n2Cc1ccco1")
"> 100 µM"
>>> observed("CC/C(=N\\NC(=O)c1cccnc1)c1ccc2c(c1)OCCO2")
"> 100 µM"
>>> observed("Brc1cccc(/C=C/CN2CCN(CCOC(c3ccccc3)c3ccccc3)CC2)c1")
"31.6 µM"
>>> observed("O=C(O)c1ccc(S(=O)(=O)c2ccccc2)c([N+](=O)[O-])c1")
"> 100 µM"

Next molecule, please.
Request: Find TGI (A549 NSCLC) for the entry `Cc1cc2nc3n[nH]c(N)c3nc2cc1C`
Response: > 100 µM

* * *

In this section we review reported TGI values for a set of compounds.
- System: OVCAR-8 ovarian
- test_method_notes: NCI tumour cell line growth inhibition, 48 h

Solved cases below.
>>> observed("NCc1ccc(-c2ccc(-c3ccc(-c4ccc(CN)s4)s3)s2)s1")
"> 100 µM"
>>> observed("COc1cc(NS(C)(=O)=O)ccc1NCc1cnc2ccc3[nH]c(C)ccc3c12")
"> 100 µM"
>>> observed("CSC(SC)=C1CC(=O)Nc2ccccc2C1=O")
"> 100 µM"

Request: Would you mind telling me what TGI value was observed for `Cn1c(C(N)=O)cc2c1-c1nc(Nc3ccccc3)ncc1CCC2` ?
Response: 69.3 µM

Request: Could you do the same for Cc1ccc(/C=C2\CN(C)CC3=C2OC(N)=C(C#N)C3c2ccc(C)cc2)cc1 (stereo unspecified) , please?
Response: > 92 µM

* * *

Entries and their TGI values follow.
- Test system: DU-145 prostate
- test_method_notes: NCI tumour cell line growth inhibition, 48 h

Some solved cases for reference:
>>> observed("CC(C)(C)OC(=O)[N+](=N)C(=O)C1CCC(=O)N1C(=O)OCc1ccccc1 (stereo unspecified)")
"> 100 µM"
>>> observed("CC1C(c2ccc(F)cc2)c2cc3c(cc2OC1N1CCCC1)OCO3 (stereo unspecified)")
"> 100 µM"
>>> observed("CCNC(=O)C[C@@H]1N=C(c2ccc(Cl)cc2)c2cc(OC)ccc2-n2c(C)nnc21")
"> 100 µM"

Request: I am curious: what TGI value has been reported for CCC1(C)C=Cc2c(cc(OC)c3c(=O)c4ccccc4n(C)c23)O1 (stereo unspecified) ?
Response: > 10 µM

Request: Queued: `NC(=O)NC(=O)c1cnccn1`
Response: > 100 µM

Request: Same again, this time with `Cn1cc(C(=O)c2nccc3c2cnc2ccccc23)ccc1=O`
Response: > 100 µM

Request: Now consider `S=CN1CCCCC1` and answer again.
Response: > 100 µM

Request: Further, for `CN(C)CCCNc1c(O)c2c(c(O)c1Cl)C(=O)C=CC2=O` ?
Response: 3.27 µM

Request: How about `Cc1ccc2c(c1)SSSSS2` ?
Response: 31.2 µM

Request: And for `CCCCCCCCCCCCN1C(C)=CS/C1=C\C=C\c1scc(C)[n+]1CCCCCCCCCCCC` ?
Response: 10.5 µM

Request: Next compound up: `C=C1C(=O)O[C@@H]2C[C@@H]1CC[C@]1(C)O[C@H]1CC[C@@]1(C)O[C@@H]1CC[C@@]2(C)O`
Response: > 100 µM

Every entry's value here was drawn from PubChem BioAssay (NCI).
